- Test system: Aspartate Aminotransferase (AST)
- measurement notes: Liver enzyme elevation in serum, AST
- Format: in vivo
- recorded conditions: cirRNA (SEQ ID NO: 1) LNPs; BALB/C mice; intravenous 0.5 MPK; 24 hours
property: AST in Sera (IU/L) 24 hours After 0.5 MPK Injection
Numbers only, in IU/L.

Example cases with answers are listed next.
compound	scale unit	observed result
CCCCCCCCC(CCCCCCCC)OC(=O)CCCCCCCN(CCCCCCCCOC(=O)C(CCCCCC)CCCCCCCC)CCCOC(=O)NCCN1CCCCCC1 (centres unmarked)	IU/L	411.00
CCCCCCCCCC(=O)OCCCCCCCN(CCCCCCCCOC(=O)C(CCCCCC)CCCCCCCC)CCOC(=O)NCCN1CCCC1 (centres unmarked)	IU/L	84.67
CCCCCCCCC(CCCCCCCC)OC(=O)CCCCCCCN(CCCCCCCCOC(=O)C(CCCCCC)CCCCCCCC)CCCOC(=O)NCCN1CCCCC1 (centres unmarked)	IU/L	389.33
CCCCCCCCC(CCCCCC)C(=O)OCCCCCCCCN(CCCCCCCCOC(=O)C(CCCCCC)CCCCCCCC)CCCOC(=O)NCCN1CCCCCC1 (centres unmarked)	IU/L	354.67

Now for a further compound.
Lookup: Given CCCCCCCCC(CCCCCCCC)OC(=O)CCCCCCCN(CCCCCCCCOC(=O)C(CCCCCC)CCCCCCCC)CCCOC(=O)NCCN(C)C (centres unmarked) , report its AST in Sera (IU/L) 24 hours After 0.5 MPK Injection on Aspartate Aminotransferase (AST).
Found: 340.00

----------
- measurement notes: LNP zeta potential (Zetasizer)
- Format: physicochemical
- recorded conditions: LNP with cirRNA (SEQ ID NO: 1)
property: Zeta (mV)
Numbers only, in mV.

molecule	Zeta (mV)
CCCCCCCCCCCOC(=O)CCCCCN(CCCCCCCCOC(=O)C(CCCCCC)CCCCCCCC)CCOC(=O)NCCN1CCN(C)CC1 (centres unmarked)	26.75
CCCCCCOC(=O)CCCCCCCCCCN(CCCCCCCCCCC(=O)OCCCCCC)CCOC(=O)NCCN(C)C	16.11
CCCCCCCCCCCOC(=O)CCCCCN(CCCCCCCCOC(=O)C(CCCCCC)CCCCCCCC)CCOC(=O)NCCN1CCOCC1 (centres unmarked)	−2.046
CCCCCCCCCCCOC(=O)CCCCCN(CCCCCCCC(=O)OC(CCCCCCCC)CCCCCCCC)CCOC(=O)NCCN1CCCCC1	−1.76
CCCCCCCCCCCOC(=O)CCCCCN(CCCCCCCC(=O)OC(CCCCCCCC)CCCCCCCC)CCOC(=O)NCCCN(C)C	14.91
CCCCCCCCCCCOC(=O)CCCCCN(CCCCCC(=O)OCCCCCCCCCCC)CCOC(=O)NCCN(C)C	25.23
CCCCC/C=C\C/C=C\CCCCCCCCN(CCCCCC(=O)OCC(CCCCCCCC)CCCCCCCCCC)CCOC(=O)NCCN1CCN(C)CC1 (centres unmarked)	9.83
CCCCCCCC/C=C\CCCCCCCCN(CCCCCCCCOC(=O)C(CCCCCC)CCCCCCCC)CCOC(=O)NCCN(C)C (centres unmarked)	7.113
CCCCCCCCCCCOC(=O)CCCCCN(CCCCCC(=O)OCCCCCCCCCCC)CCOC(=O)NCCN1CCCC1	20.18
CCCCCCCC/C=C\CCCCCCCCN(CCCCCCCCOC(=O)C(CCCCCC)CCCCCCCC)CCOC(=O)NCCCN(C)C (centres unmarked)	11.61

For each entry beneath this line, provide reported Zeta (mV).
1. CCCCC/C=C\C/C=C\CCCCCCCCN(CCCCCCCC(=O)OC(CCCCCCCC)CCCCCCCC)CCCOC(=O)NCCCN(C)C
2. CCCCCCCCC(CCCCCCCC)OC(=O)CCCCCCCN(CCCCCCCCOC(=O)C(CCCCCC)CCCCCCCC)CCCOC(=O)NCCN1CCC1 (centres unmarked)
3. CCCCC/C=C\CCOC(=O)CCCCCN(CCCCCCCCOC(=O)C(CCCCCC)CCCCCCCC)CCOC(=O)NCCN1CCN(C)CC1 (centres unmarked)
4. CCCCCCCCCCCOC(=O)CCCCCN(CCCCCCCCOC(=O)C(CCCCCC)CCCCCCCC)CCOC(=O)NCCN1CCCC1 (centres unmarked)

Found:
1. 6.337
2. 4.334
3. 8.983
4. 14.86

Provenance of the data: patent US12691070B2
